Reference source for all entries: ChEMBL document CHEMBL1667826

Molecular target: Mineralocorticoid receptor (Rattus norvegicus, UniProt P22199)
Sequence (P22199 whole entry): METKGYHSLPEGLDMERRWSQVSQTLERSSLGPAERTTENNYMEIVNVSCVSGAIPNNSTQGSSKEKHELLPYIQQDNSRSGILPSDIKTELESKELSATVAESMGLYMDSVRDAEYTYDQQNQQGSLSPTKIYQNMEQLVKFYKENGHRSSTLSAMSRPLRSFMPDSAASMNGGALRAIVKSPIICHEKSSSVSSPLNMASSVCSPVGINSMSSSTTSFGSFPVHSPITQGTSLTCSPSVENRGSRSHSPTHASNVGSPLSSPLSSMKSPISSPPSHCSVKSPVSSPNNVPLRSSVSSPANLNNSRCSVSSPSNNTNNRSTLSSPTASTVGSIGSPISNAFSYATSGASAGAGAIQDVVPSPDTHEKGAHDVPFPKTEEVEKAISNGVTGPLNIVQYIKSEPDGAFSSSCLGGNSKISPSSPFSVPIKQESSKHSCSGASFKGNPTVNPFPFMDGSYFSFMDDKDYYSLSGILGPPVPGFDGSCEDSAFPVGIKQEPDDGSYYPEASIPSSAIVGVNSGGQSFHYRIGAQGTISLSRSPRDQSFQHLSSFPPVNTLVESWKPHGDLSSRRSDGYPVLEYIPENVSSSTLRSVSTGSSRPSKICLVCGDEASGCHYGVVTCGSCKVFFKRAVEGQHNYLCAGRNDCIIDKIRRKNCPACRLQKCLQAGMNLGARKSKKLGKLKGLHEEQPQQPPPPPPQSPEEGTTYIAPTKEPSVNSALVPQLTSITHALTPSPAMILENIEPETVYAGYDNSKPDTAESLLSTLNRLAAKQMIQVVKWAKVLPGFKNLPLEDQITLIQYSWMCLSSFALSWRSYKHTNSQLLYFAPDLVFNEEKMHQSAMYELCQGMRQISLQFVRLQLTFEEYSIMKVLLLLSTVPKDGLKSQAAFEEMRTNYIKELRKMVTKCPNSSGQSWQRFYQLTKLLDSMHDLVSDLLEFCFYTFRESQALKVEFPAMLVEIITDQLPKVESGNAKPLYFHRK
Test: Antagonist activity at rat mineralocorticoid receptor-ligand binding domain expressed in AH109 yeast cells co expressing pGADT7-hSRC-1 by two hybrid assay
Assay type: cell-based
Conditions: read-out: IC50
pIC50: −log10 of the molar value.

COMPOUND	pIC50
CC(=O)Oc1cc2c(c(OC(C)=O)c1)C(=O)OCCCCCCCC2	5.95
COc1cc2c(c(OC)c1)C(=O)O[C@H](C)CCC/C=C\CC2	4.78
CC(=O)Oc1cc2c(c(OC(C)=O)c1)C(=O)OCCCCCCCCC2	6.09
CC(=O)Oc1cc2c(c(OC(C)=O)c1)C(=O)OCCCCCCCCCC2	5.54
CCC(=O)Oc1cc2c(c(OC(=O)CC)c1)C(=O)O[C@H](C)CCCCCCC2	4.50
CC(=O)Oc1cc2c(c(OC(C)=O)c1)C(=O)O[C@H](C)CCCCCCC2	5.56
C[C@@H]1CCCCCCCc2cc(O)cc(O)c2C(=O)O1	5.05
CC(=O)Oc1cc2c(c(OC(C)=O)c1)C(=O)OCCCCCCC2	6.24
Cc1ccc(S(=O)(=O)Oc2cc3c(c(OS(=O)(=O)c4ccc(C)cc4)c2)C(=O)O[C@H](C)CCCCCCC3)cc1	5.19
